Recorded TGI by entry
Test system: HL-60(TB) leukemia
experimental_details: NCI tumour cell line growth inhibition, 48 h
Where a SMILES comes first, the peptide text is derived from it. [ ]: non-standard residue; d: D form. Ac5c = NC1(C(=O)O)CCCC1

Completed entries (count: 5):
compound	system	TGI
COC(=O)CCc1ccc2c(c1)[C@H](C(=O)OC)[C@@H](c1ccc(O)cc1)O2	HL-60(TB) leukemia	> 100 µM
CCOc1ccc2nc(NC(=O)C(=O)C(C#N)CC(C)(C)C=O)sc2c1 (stereo not drawn)	HL-60(TB) leukemia	> 100 µM
C/C(=N/OC(=O)c1cccc2c(=O)c3ccccc3[nH]c12)[C@H]1CC[C@H]2[C@@H]3CCC4=C/C(=N/OC(=O)c5cccc6c(=O)c7ccccc7[nH]c56)CC[C@]4(C)[C@H]3CC[C@]12C	HL-60(TB) leukemia	34 µM
Cc1cc(C(C)C)cc(O)c(=O)c1	HL-60(TB) leukemia	> 100 µM
O=C(Nc1ccc2ncccc2c1)c1cc2c(cc1Cl)Sc1nccn1S2(=O)=O	HL-60(TB) leukemia	26.6 µM

Problem: Let me know recorded TGI for CCCC(=O)c1c(NOC2OCC(OC(C)=O)C(OC(C)=O)C2OC(C)=O)nc(OC)n(C)c1=O (stereo not drawn) , thanks.
Solution: 3.09 µM

Problem: Hello, please tell me recorded TGI for this one: COC(=O)C1(NC(=O)C(C)NC(=O)C(CCCCN)NC(=O)C(CC(C)C)NC(C)=O)CCCC1 (stereo not drawn) (Ac-LKA[Ac5c]-OMe; configuration not given here)
Solution: > 100 µM

Problem: Return TGI for the following compound: `CN(/N=C(\C(=O)O)c1ccccc1)C1=NCCN1`
Solution: > 100 µM

###

Tested on: OVCAR-3 ovarian
experimental_details: NCI tumour cell line growth inhibition, 48 h
readout_kind: TGI (µM)
Give the value in µM but do not write µM after it.

Known TGI results, listed for orientation:
> print(dat)
                                test.smiles  meas.value
1  CC(C)(C)c1cc(OCc2nnc3sc(-c4ccc(Cl)cc4)nn23)c(Cl)cc1OCc1nnc2sc(-c3ccc(Cl)cc3)nn12        8.73
2  COc1ccc(N2CCN(C(=O)c3ccc(C(F)(F)F)nc3Nc3cc(Cl)ccc3C)CC2)cc1          19

Problem: GET TGI where system = OVCAR-3 ovarian and item = `Cc1cc(Nc2ccc3c(c2)OCO3)c2cc3c(cc2n1)OCO3`
Solution: 3.03

###

Tested on: DU-145 prostate
experimental_details: NCI tumour cell line growth inhibition, 48 h
Below is a list of entries, each paired with its recorded GI50 value.

Recorded GI50, per entry:
> print(dat)
                                   molecule           system  meas.value
1  Cn1cc(-c2ccc(-c3cn(C)c4ccc(Cl)cc34)[nH]2)c2cc(Cl)ccc21  DU-145 prostate     3.57 µM
2  O=[N+]([O-])c1ccc2c(c1)C(=NO)c1cc([N+](=O)[O-])ccc1-2  DU-145 prostate     55.1 µM
3  Cc1ccc(Cl)cc1-c1nc(N)nc(Nc2ccc(Br)cc2)n1  DU-145 prostate    0.069 µM

Problem: Kindly indicate its recorded GI50. Item: O=c1cc(NCC(O)CN2CCOCC2)n(Cc2ccccc2)c(=O)n1Cc1ccccc1 (centres undefined)
Solution: 51.7 µM

Problem: State its GI50: CCOC(=O)/C=C1/SC(N2CCCCC2)C(=O)N1CC (centres undefined)
Solution: > 100 µM
